Assay: Short-term stability in spiked pooled human plasma (bench-top, 4 °C, 56 °C)
Settings: validation standard 2xLLOV
Classify by measured Short-time stability (24h, RT, with daylight) Accuracy [%]: true (1) if it is equal to or exceeds 90%, false (0) if it is smaller.

COc1cc(N2CCC(N3CCN(C)CC3)CC2)ccc1Nc1ncc(Cl)c(Nc2ccccc2P(C)(C)=O)n1 | false (0)
Cc1cn(-c2cc(NC(=O)c3ccc(C)c(Nc4nccc(-c5cccnc5)n4)c3)cc(C(F)(F)F)c2)cn1 | true (1)
CNC(=O)c1ccc(N2C(=S)N(c3cnc(C#N)c(C(F)(F)F)c3)C(=O)C23CCC3)cc1F [Apalutamide] | false (0)
Cc1ccc(NC(=O)c2ccc(CN3CCN(C)CC3)cc2)cc1Nc1nccc(-c2cccnc2)n1 | false (0)
N#CC[C@H](C1CCCC1)n1cc(-c2ncnc3[nH]ccc23)cn1 | true (1)
COc1cc2ncnc(Nc3ccc(F)c(Cl)c3)c2cc1NC(=O)/C=C/CN1CCCCC1 | false (0)
NC(=O)c1cccc2cn(-c3ccc([C@@H]4CCCNC4)cc3)nc12 | true (1)
CS(=O)(=O)c1ccc(C(=O)Nc2ccc(Cl)c(-c3ccccn3)c2)c(Cl)c1 | true (1)
CNCc1ccc(-c2[nH]c3cc(F)cc4c3c2CCNC4=O)cc1 | true (1)
CCOc1cc2ncc(C#N)c(Nc3ccc(OCc4ccccn4)c(Cl)c3)c2cc1NC(=O)/C=C/CN(C)C | false (0)
COc1cc2c(Nc3ccc(Br)cc3F)ncnc2cc1OCC1CCN(C)CC1 | true (1)
COc1cc2nccc(Oc3ccc(NC(=O)Nc4cc(C)on4)c(Cl)c3)c2cc1OC | true (1)
Cc1c(C(=O)Nc2ccc(N3C[C@@H](C)O[C@@H](C)C3)nc2)cccc1-c1ccc(OC(F)(F)F)cc1 | true (1)
Cc1ccc(C(=O)Nc2ccc(CN3CCN(C)CC3)c(C(F)(F)F)c2)cc1C#Cc1cnc2cccnn12 | true (1)

###

Test: Autosampler stability of ready for injection samples
Type: physicochemical, human
Details: validation standard LLOV
ASSAY ENDPOINT: Autosampler (24h, 4°C) Accuracy [%] (%)

CCC1=C[C@@H]2CN(C1)Cc1c([nH]c3ccccc13)[C@@](C(=O)OC)(c1cc3c(cc1OC)N(C)[C@H]1[C@@](O)(C(=O)OC)[C@H](OC(C)=O)[C@]4(CC)C=CCN5CC[C@]31[C@@H]54)C2 [Vinorelbine] | 65.0
C[C@H]1Oc2cc(cnc2N)-c2c(nn(C)c2C#N)CN(C)C(=O)c2ccc(F)cc21 [Lorlatinib] | 96.7
CCN1CCN(Cc2ccc(Nc3ncc(F)c(-c4cc(F)c5nc(C)n(C(C)C)c5c4)n3)nc2)CC1 [Abemaciclib] | 89.1
CC1(C)CCC(CN2CCN(c3ccc(C(=O)NS(=O)(=O)c4ccc(NCC5CCOCC5)c([N+](=O)[O-])c4)c(Oc4cnc5[nH]ccc5c4)c3)CC2)=C(c2ccc(Cl)cc2)C1 [Venetoclax] | 106.3
CC(=O)Nc1cccc(-n2c(=O)n(C3CC3)c(=O)c3c(Nc4ccc(I)cc4F)n(C)c(=O)c(C)c32)c1 [Trametinib] | 101.7
COC(=O)c1ccc2c(c1)NC(=O)/C2=C(\Nc1ccc(N(C)C(=O)CN2CCN(C)CC2)cc1)c1ccccc1 [Nintedanib] | 91.3
